Biological target: EGFR (del19/T790M/C797S) (Homo sapiens, UniProt P00533, C797S/DEL746-750/T790M)
Sequence (P00533 with tags, fused parts or gaps DEL746-750/T790M/C797S limits assumed): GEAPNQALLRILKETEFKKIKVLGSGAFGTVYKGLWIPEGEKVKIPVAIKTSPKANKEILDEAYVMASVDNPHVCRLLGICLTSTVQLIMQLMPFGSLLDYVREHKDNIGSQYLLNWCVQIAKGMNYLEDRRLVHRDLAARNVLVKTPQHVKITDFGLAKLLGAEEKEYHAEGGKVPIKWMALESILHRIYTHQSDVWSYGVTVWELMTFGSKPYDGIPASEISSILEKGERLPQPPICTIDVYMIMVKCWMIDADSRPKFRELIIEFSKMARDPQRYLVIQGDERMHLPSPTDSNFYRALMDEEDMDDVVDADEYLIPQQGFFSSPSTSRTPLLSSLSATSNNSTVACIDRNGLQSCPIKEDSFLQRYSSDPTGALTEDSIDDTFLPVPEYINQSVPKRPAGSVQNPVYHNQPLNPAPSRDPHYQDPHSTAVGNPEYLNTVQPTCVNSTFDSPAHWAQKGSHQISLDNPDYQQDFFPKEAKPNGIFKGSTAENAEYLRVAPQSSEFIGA
Assay: Kinase inhibitory activity (33P-ATP filter-binding, scintillation counting)
Method: The measurement of the kinase inhibitory activity was performed in the following method. 2. An evaluation compound (DMSO solution) and Mg/ATP were added to perform the reaction. 3. After about 40 minutes at room temperature, 10 μL of 0.5% phosphoric acid was added to complete the reaction. 4. The reaction solution was divided by 0.5% 10 μL and spotted on a P30 filtermat. 5. […] The reaction solution was washed once with methanol and then dried and analyzed with scintillation counting to measure IC50 values.
pIC50: −log10 of the molar value.
outcome.measure: pIC50

stdin: Given the entry COc1cc(N2CC3(COC3)C2)c(-c2cnn(C)c2)cc1Nc1ncc(Cl)c(Nc2ccccc2N(C)S(C)(=O)=O)n1 , report its measured pIC50.
stdout: > 7.30

stdin: Given the entry COc1cc(N2CC3(CN(C)C3)C2)c(-c2cnn(C)c2)cc1Nc1ncc(Cl)c(Nc2ccccc2N(C)S(C)(=O)=O)n1 , report its measured pIC50.
stdout: 7.00 to 7.30

stdin: Given the entry COc1cc(N2CCOCC2)c(-c2cnn(C)c2)cc1Nc1ncc(Cl)c(Nc2ccccc2N(C)S(C)(=O)=O)n1 , report its measured pIC50.
stdout: > 7.30

stdin: Given the entry COc1cc(N2CCSCC2)c(-c2cnn(C)c2)cc1Nc1ncc(Cl)c(Nc2ccccc2N(C)S(C)(=O)=O)n1 , report its measured pIC50.
stdout: > 7.30

Where do the numbers come from? From patent US12421221B2.
